Values compiled from the CATMoS acute toxicity set (Mansouri et al. 2021).

Assay: GHS categories as the set defines them, by LD50: 1 up to 5, 2 up to 50, 3 up to 300, 4 up to 2000, 5 above 2000 mg/kg
Conditions: rat; in vivo; po
Give GHS category for every item shown.
Quick one: just the number, no unit, thanks!

Incoming: Please look up its GHS category: CNc1ccc(Cl)cc1C(=O)c1ccccc1Cl
Outgoing: 5

Incoming: Okay, and Cc1c(C)c2c(c(C)c1O)CCC(C)(CCCC(C)CCCC(C)CCCC(C)C)O2 (racemic) ?
Outgoing: 5

Incoming: How about Cc1cccc(OC(=O)c2cc(Cl)ccc2OC(N)=O)c1 ?
Outgoing: 5

Incoming: // query: C=CN1CCCC1=O
Outgoing: 5

Incoming: Then what about the compound CCOC(=O)OCCOc1cc(O)c2c(c1N)C(=O)c1ccccc1C2=O ?
Outgoing: 5

Incoming: Then this compound: CC(CCc1ccccc1)NCC(O)c1ccc(O)c(C(N)=O)c1 (stereo not drawn)
Outgoing: 5

Incoming: Same thing, different compound: C[N@+]1(CCNP(=S)(NCC[N@@+]2(C)Cc3c(ccc4c3OCO4)[C@@H]3[C@H]2c2cc4c(cc2C[C@@H]3O)OCO4)NCC[N@@+]2(C)Cc3c(ccc4c3OCO4)[C@@H]3[C@H]2c2cc4c(cc2C[C@@H]3O)OCO4)Cc2c(ccc3c2OCO3)[C@@H]2[C@H]1c1cc3c(cc1C[C@@H]2O)OCO3
Outgoing: 4

Incoming: Next entry: O=C1CCc2ccc(OCC(O)CN3CCC(c4ccccc4)CC3)cc2N1 (stereo not drawn)
Outgoing: 4

Incoming: Cool, now CCCCCCCCCCSCCN1CCCC1=O
Outgoing: 5

Incoming: Another compound: CNC(=O)C(=NNc1ccc(OC)cc1[N+](=O)[O-])C(C)=O
Outgoing: 5

Incoming: Entry CC1CCCO1 (stereo not drawn) please
Outgoing: 4

Incoming: Request: C=C[Si](C)(N(CC)C(C)=O)N(CC)C(C)=O
Outgoing: 4

Incoming: What do you have for C=COCCCCCCCCCCCCCCCCCC ?
Outgoing: 5

Incoming: Further, for O=C(O)c1ccccc1Nc1ccc(Cl)c2ccccc12 ?
Outgoing: 5

Incoming: Would you mind doing O=C(c1ccc(OC2CCOC2)cc1)c1cc(I)ccc1Cl (stereo not drawn) as well?
Outgoing: 4

Incoming: Let us now turn to COc1ccc2c(c1)c(CC(=O)NC1CCCC1)c(C)n2C(=O)c1ccc(Cl)cc1
Outgoing: 5

Incoming: What about this compound? CC1=CC1
Outgoing: 5

Incoming: Next compound up: CCCCCC(O)CCO (stereo not drawn)
Outgoing: 5

Incoming: Now consider CC12CCCC(O)(C1)C1CC(C)(C)C1CC2 (stereo not drawn) .
Outgoing: 5

Incoming: Please answer likewise for O=S(=O)(O)c1ccc(/N=N/c2cc(CO)c(O)c(/N=N/c3ccc(S(=O)(=O)O)c4ccccc34)c2O)c2ccccc12
Outgoing: 5

Incoming: Now give it for CCCCCCOC(=O)CC(C)C too.
Outgoing: 5

Incoming: Now consider CCCCC(CC)CN1CN(CC(CC)CCCC)CC(C)(N)C1 (stereo not drawn) and answer again.
Outgoing: 4

Incoming: Try the compound CCCCC(CC)COC(=O)OCC(CC)CCCC (stereo not drawn)
Outgoing: 5
